Assay: Drug concentration in total skeletal muscle in Wistar Han rat at 1 to 2 mg/kg, iv infused for 10 to 20 hrs by LC-MS/MS analysis
Conditions: in vivo
ASSAY READOUT: Ct (ng/mL)

Check out these entries, answers already filled in.
# input Which Ct value belongs to `Cc1nc([C@@H]2CCOC2)c2c(N3CCc4c(c(C5CC5)nn4C)C3)ncnn12` ?
# output 75

# input Would you mind telling me what Ct value was observed for `Cc1nc2cc(-c3cc(F)cc(C#N)c3)ccc2s1` ?
# output 25

# input What value of measured Ct is listed for `O=C(NC1CC1)c1nc2cccnn2c1-c1ccc2ncnn2c1` ?
# output 100

# input Which value of Ct has been reported for `NC(=O)c1c(-c2ccc(Oc3ccc(Cl)cc3)cc2)nn([C@@H]2CCCN(C(=O)/C=C/CO)C2)c1N` in the records?
# output 97

[I] C[C@H](c1nc2cnc(N3CCC[C@@H](C(=O)N4CCCC4)C3)nc2[nH]1)n1cc(Cl)cn1
[II] CC(C)(CC1Cc2ccccc2C1)NC[C@@H](O)COc1cc(C2CC3CC2C2C(C(=O)O)C32)ccc1C#N (some centres undefined)
# input Would you let me know which has the greater Ct value, I or II ? Please respond with the label that marks your chosen entry.
# output I
